test system: HCT116 (colorectal carcinoma, K Ras G13D) cells; experiment: Cell proliferation (Alamar Blue) assay, HCT116; format: cell-based, human; conditions: Homo sapiens, HCT-116, HCT116 cells
pIC50: −log10 of the molar value.
observed-property: pIC50

Ask: I have this molecule here, CCC(COC)Nc1ncc(C)c(-n2ccc(C(=O)NC(CO)c3cccc(Cl)c3)c2)n1 (centres unmarked) , and I need its recorded pIC50.
Reply: < 5.60

Ask: I have this molecule here, Cc1cnc(Nc2ccc(F)cc2)cc1-n1cnc(C(=O)NC(CO)c2ccccc2)c1 (centres unmarked) , and I need its recorded pIC50.
Reply: < 5.60

Ask: I have this molecule here, Cc1cnc(Nc2ccc3occc3c2)nc1-n1cnc(C(=O)NC(CO)c2cccc(Cl)c2)c1 (centres unmarked) , and I need its recorded pIC50.
Reply: 5.60 to 6.30

Ask: I have this molecule here, Cc1cnc(NC2CCOC(C)C2)nc1-n1cnc(C(=O)N[C@H](CO)c2cccc(Cl)c2)c1 (some centres unmarked) , and I need its recorded pIC50.
Reply: 6.30 to 6.60

Ask: I have this molecule here, Cc1cnc(NC2CCOCC2)nc1-n1cnc(C(=O)NCc2nccs2)c1 , and I need its recorded pIC50.
Reply: < 5.60

Ask: I have this molecule here, Cc1cnc(Nc2ccc3occc3c2)nc1-n1ccc(C(=O)NC(CO)c2ccccc2)c1 (centres unmarked) , and I need its recorded pIC50.
Reply: 6.60 to 7.00

Ask: I have this molecule here, Cc1cnc(Nc2ccc(F)cc2)nc1-n1cc(C(=O)NC(CO)c2ccccc2)nc1C (centres unmarked) , and I need its recorded pIC50.
Reply: < 5.60

Ask: I have this molecule here, CC(=O)OCc1c(Cl)cccc1CNC(=O)c1cn(-c2nc(NC3CCOCC3)ncc2C)cn1 , and I need its recorded pIC50.
Reply: ≥ 7.00

Ask: I have this molecule here, Cc1cnc(NC2CCOCC2)nc1-n1cnc(C(=O)NCc2ccccc2CO)c1 , and I need its recorded pIC50.
Reply: 6.30 to 6.60

Ask: I have this molecule here, NCC(Cc1ccccc1)NC(=O)c1ccn(-c2ccnc(Nc3ccc(F)cc3)c2)c1 (centres unmarked) , and I need its recorded pIC50.
Reply: < 5.60

Ask: I have this molecule here, Cc1cnc(NC2CCOCC2)nc1-n1cnc(C(=O)NC(CO)c2ccc(Cl)s2)c1 (centres unmarked) , and I need its recorded pIC50.
Reply: < 5.60

Ask: I have this molecule here, Cc1cnc(NC2CCOCC2)nc1-n1cnc(C(=O)NCc2cccc(Cl)c2CN)c1 , and I need its recorded pIC50.
Reply: 6.60 to 7.00

Ask: I have this molecule here, Cc1cnc(Nc2cccnc2)cc1-n1ccc(C(=O)NC(CO)c2ccccc2)c1 (centres unmarked) , and I need its recorded pIC50.
Reply: < 5.60

Ask: I have this molecule here, Cc1cnc(N[C@H]2CC[C@@H](O)CC2)nc1-n1cnc(C(=O)N[C@H](CO)c2cccc(Cl)c2)c1 , and I need its recorded pIC50.
Reply: 5.60 to 6.30

Ask: I have this molecule here, O=C(Nc1cnn(-c2ccnc(Nc3ccccc3Cl)n2)c1)N[C@H](CO)c1ccccc1 , and I need its recorded pIC50.
Reply: < 5.60

Ask: I have this molecule here, O=C(NC(CO)c1cccc(Cl)c1)c1cn(-c2cc(Nc3ccccc3)ncc2Cl)cn1 (centres unmarked) , and I need its recorded pIC50.
Reply: < 5.60

Ask: I have this molecule here, Cc1cnc(NC2CCOCC2)nc1-n1cnc(C(=O)NCc2ccc(Cl)c(CO)c2)c1 , and I need its recorded pIC50.
Reply: < 5.60
